Documented Decomposition efficiency of genistin family in defatted soybean across a set of compounds
- Tested on: Crude diglycosidase
- Assay summary: Examination of substrate concentration in the conversion into isoflavone aglycons by diglycosidase using soybean materials
- Type: biochemical, Penicillium multicolor IAM7153
- Conditions used: substrate concentration 10%, heat treatment of enzyme no, reaction time 0 h

Below: 2 compounds and their reported Decomposition efficiency of genistin family in defatted soybean.
1) O=c1c(-c2ccc(O)cc2)coc2cc(O[C@@H]3O[C@H](CO)[C@@H](O)[C@H](O)[C@H]3O)cc(O)c12; 42.4
2) O=c1c(-c2ccc(O)cc2)coc2cc(O)cc(O)c12; 14.1

Query: Tell me measured Decomposition efficiency of genistin family in defatted soybean for `CC(=O)OC[C@H]1O[C@@H](Oc2cc(O)c3c(=O)c(-c4ccc(O)cc4)coc3c2)[C@H](O)[C@@H](O)[C@@H]1O` please.
Result: 1.9

Query: Tell me Decomposition efficiency of genistin family in defatted soybean reported for `O=C(O)CC(=O)OC[C@H]1O[C@@H](Oc2cc(O)c3c(=O)c(-c4ccc(O)cc4)coc3c2)[C@H](O)[C@@H](O)[C@@H]1O`
Result: 41.6

====

- Test system: Crude diglycosidase
- Assay summary: Examination of temperature in the conversion into isoflavone aglycons by diglycosidase using soybean materials
- Type: biochemical, Penicillium multicolor IAM7153
- Parameters: concentration or dose not given beside the values
- Conditions used: 30° C., heat treatment of enzyme yes, reaction time 6 h
Metric: Decomposition efficiency of daidzin family in defatted soybean

1. O=C(O)CC(=O)OC[C@H]1O[C@@H](Oc2ccc3c(=O)c(-c4ccc(O)cc4)coc3c2)[C@H](O)[C@@H](O)[C@@H]1O; 45.4%
2. O=c1c(-c2ccc(O)cc2)coc2cc(O)ccc12; 54.6%
3. CC(=O)OC[C@H]1O[C@@H](Oc2ccc3c(=O)c(-c4ccc(O)cc4)coc3c2)[C@H](O)[C@@H](O)[C@@H]1O; not detected
4. O=c1c(-c2ccc(O)cc2)coc2cc(O[C@@H]3O[C@H](CO)[C@@H](O)[C@H](O)[C@H]3O)ccc12; not detected

====

- Tested on: Crude diglycosidase
- Assay summary: Examination of pH in the conversion into isoflavone aglycons by diglycosidase using soybean materials
- Assay type: biochemical, Penicillium multicolor IAM7153
- Conditions used: pH3.5; heat treatment of enzyme: yes; reaction time 6 h
Metric: Decomposition efficiency of daidzin family in soymilk

1. O=c1c(-c2ccc(O)cc2)coc2cc(O[C@@H]3O[C@H](CO)[C@@H](O)[C@H](O)[C@H]3O)ccc12 [daidzin]; 40.4%

Query: Name the recorded Decomposition efficiency of daidzin family in soymilk of the compound listed here: O=c1c(-c2ccc(O)cc2)coc2cc(O)ccc12 [daidzein]
Result: 10.6%

Query: Respond only with Decomposition efficiency of daidzin family in soymilk recorded for O=C(O)CC(=O)OC[C@H]1O[C@@H](Oc2ccc3c(=O)c(-c4ccc(O)cc4)coc3c2)[C@H](O)[C@@H](O)[C@@H]1O [malonyldaidzin, 6″-O-malonyldaidzin]
Result: 49.1%

====

- Test system: Crude diglycosidase
- Assay summary: Examination of temperature in the conversion into isoflavone aglycons by diglycosidase using soybean materials
- Format: biochemical, Penicillium multicolor IAM7153
- Conditions used: 45 °C; heat treatment of enzyme: no; 3 h
Metric: Decomposition efficiency of glycitin family in soymilk

1) COc1cc2c(=O)c(-c3ccc(O)cc3)coc2cc1O[C@@H]1O[C@H](COC(=O)CC(=O)O)[C@@H](O)[C@H](O)[C@H]1O [malonylglycitin, 6″-O-malonylglycitin]; 29.9%
2) COc1cc2c(=O)c(-c3ccc(O)cc3)coc2cc1O [glycitein]; 70.1%
3) COc1cc2c(=O)c(-c3ccc(O)cc3)coc2cc1O[C@@H]1O[C@H](COC(C)=O)[C@@H](O)[C@H](O)[C@H]1O [acetylglycitin, 6″-O-acetylglycitin]; not detected
4) COc1cc2c(=O)c(-c3ccc(O)cc3)coc2cc1O[C@@H]1O[C@H](CO)[C@@H](O)[C@H](O)[C@H]1O [glycitin]; not detected

====

- System: Crude diglycosidase
- Assay summary: Examination of temperature in the conversion into isoflavone aglycons by diglycosidase using soybean materials
- Type: biochemical, Penicillium multicolor IAM7153
- Set-up: concentration or dose not given beside the values
- Conditions used: 45° C., heat treatment of enzyme no, reaction time 0 h
Metric: Decomposition efficiency of glycitin family in defatted soybean (%)
Field: numeric (%). Do not append units.

1) COc1cc2c(=O)c(-c3ccc(O)cc3)coc2cc1O; 34.8

Here's the next entry for you.
Query: Indicate the recorded Decomposition efficiency of glycitin family in defatted soybean value for this compound: `COc1cc2c(=O)c(-c3ccc(O)cc3)coc2cc1O[C@@H]1O[C@H](COC(=O)CC(=O)O)[C@@H](O)[C@H](O)[C@H]1O`
Result: 65.2

====

Examples of compounds with documented Decomposition efficiency of glycitin family in soymilk follow.
- System: Crude diglycosidase
- Assay summary: Examination of pH in the conversion into isoflavone aglycons by diglycosidase using soybean materials
- Assay type: biochemical, Penicillium multicolor IAM7153
- Conditions used: pH7.2, heat treatment of enzyme no, reaction time 1 h, 55° C.
Enter the number alone.

1) COc1cc2c(=O)c(-c3ccc(O)cc3)coc2cc1O; 51.2

Query compound follows.
Query: Output Decomposition efficiency of glycitin family in soymilk of `COc1cc2c(=O)c(-c3ccc(O)cc3)coc2cc1O[C@@H]1O[C@H](COC(=O)CC(=O)O)[C@@H](O)[C@H](O)[C@H]1O`
Result: 48.8

====

- Tested on: Crude diglycosidase
- Assay summary: Examination of temperature in the conversion into isoflavone aglycons by diglycosidase using soybean materials
- Format: biochemical, Penicillium multicolor IAM7153
- Conditions used: 65 °C; heat treatment of enzyme: yes; 6 h
The molecules listed here are annotated with their Decomposition efficiency of glycitin family in concentrated soybean protein.
Dear colleague, please return just the value in %, with no unit written.

Illustrative cases are given below, each with its answer.
1) COc1cc2c(=O)c(-c3ccc(O)cc3)coc2cc1O[C@@H]1O[C@H](COC(C)=O)[C@@H](O)[C@H](O)[C@H]1O; 35.7
2) COc1cc2c(=O)c(-c3ccc(O)cc3)coc2cc1O[C@@H]1O[C@H](CO)[C@@H](O)[C@H](O)[C@H]1O; 52.5
3) COc1cc2c(=O)c(-c3ccc(O)cc3)coc2cc1O; 11.4

Lab note: next molecule to report on.
Query: Provide only the value of recorded Decomposition efficiency of glycitin family in concentrated soybean protein for `COc1cc2c(=O)c(-c3ccc(O)cc3)coc2cc1O[C@@H]1O[C@H](COC(=O)CC(=O)O)[C@@H](O)[C@H](O)[C@H]1O`
Result: 0.4

====

The entries below are paired with their reported Decomposition efficiency: ratio of each glycoside/aglycon within its isoflavone family.
- System: Crude diglycosidase
- Assay summary: Examination of substrate concentration in the conversion into isoflavone aglycons by diglycosidase using soybean materials;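 as to Decomposition efficiency: ratio of each glycoside/aglycon within its isoflavone family: percent of the isoflavone family total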
- Format: biochemical, Penicillium multicolor IAM7153
- Conditions used: roasted soy flour, substrate concentration 30%, heat treatment of enzyme yes, reaction time 6 h

Guide cases for Decomposition efficiency: ratio of each glycoside/aglycon within its isoflavone family, answers given:
1. O=c1c(-c2ccc(O)cc2)coc2cc(O[C@@H]3O[C@H](CO)[C@@H](O)[C@H](O)[C@H]3O)cc(O)c12; 50.1%
2. COc1cc2c(=O)c(-c3ccc(O)cc3)coc2cc1O; 8.7%
3. CC(=O)OC[C@H]1O[C@@H](Oc2cc(O)c3c(=O)c(-c4ccc(O)cc4)coc3c2)[C@H](O)[C@@H](O)[C@@H]1O; 46.1%

Query: Supply recorded Decomposition efficiency: ratio of each glycoside/aglycon within its isoflavone family for `O=c1c(-c2ccc(O)cc2)coc2cc(O[C@@H]3O[C@H](CO)[C@@H](O)[C@H](O)[C@H]3O)ccc12` here.
Result: 49.0%

Query: Name the recorded Decomposition efficiency: ratio of each glycoside/aglycon within its isoflavone family of the item `COc1cc2c(=O)c(-c3ccc(O)cc3)coc2cc1O[C@@H]1O[C@H](COC(C)=O)[C@@H](O)[C@H](O)[C@H]1O` in your answer.
Result: 34.4%

====

- Test system: Crude diglycosidase
- Assay summary: Examination of temperature in the conversion into isoflavone aglycons by diglycosidase using soybean materials
- Assay type: biochemical, Penicillium multicolor IAM7153
- Conditions used: 30° C., heat treatment of enzyme no, reaction time 6 h
Metric: Decomposition efficiency of genistin family in defatted soybean (%)
Report only the number, with the unit % understood.

Completed entries (count: 3):
1) CC(=O)OC[C@H]1O[C@@H](Oc2cc(O)c3c(=O)c(-c4ccc(O)cc4)coc3c2)[C@H](O)[C@@H](O)[C@@H]1O [acetylgenistin, 6″-O-acetylgenistin]; 0.1
2) O=c1c(-c2ccc(O)cc2)coc2cc(O[C@@H]3O[C@H](CO)[C@@H](O)[C@H](O)[C@H]3O)cc(O)c12 [genistin]; 7.6
3) O=c1c(-c2ccc(O)cc2)coc2cc(O)cc(O)c12 [genistein]; 46.6

Next, consider the following compound.
Query: Give Decomposition efficiency of genistin family in defatted soybean for O=C(O)CC(=O)OC[C@H]1O[C@@H](Oc2cc(O)c3c(=O)c(-c4ccc(O)cc4)coc3c2)[C@H](O)[C@@H](O)[C@@H]1O [malonylgenistin, 6″-O-malonylgenistin] tested on Crude diglycosidase.
Result: 45.6
